Test system: Escherichia coli TOP10;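 also: peptides expressed intracellularly from a pBAD plasmid library in pooled LB shake-flask culture, induced with 0.3% L-arabinose, DNA abundance read by NGS, three biological replicates, DESeq2 with apeglm shrinkage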
assay text: shrunken log2 fold change of peptide-encoding DNA abundance (4.5 h post-induction vs induction); higher = less antimicrobial activity (less host growth inhibition)
condition parameters: time post-induction: 4.5 h; library: site-saturation at positions 5, 18, 19, 20
experimental readout: shrunken log2 fold change

sequence text	measured on	experimental readout	measured value
RRIRFRPPRLPRPRPRPQWHPRP	Escherichia coli TOP10	shrunken log2 fold change	-0.461
RRIRKRPPRLPRPRPRPTNAPRP	Escherichia coli TOP10	shrunken log2 fold change	0.733
RRIRVRPPRLPRPRPRPFAVPRP	Escherichia coli TOP10	shrunken log2 fold change	-0.00738
RRIRCRPPRLPRPRPRPHMFPRP	Escherichia coli TOP10	shrunken log2 fold change	-0.348
RRIRPRPPRLPRPRPRPYKCPRP	Escherichia coli TOP10	shrunken log2 fold change	-0.0297
RRIRNRPPRLPRPRPRPVVTPRP	Escherichia coli TOP10	shrunken log2 fold change	-0.114
RRIRARPPRLPRPRPRPWRCPRP	Escherichia coli TOP10	shrunken log2 fold change	0.0472
RRIRKRPPRLPRPRPRPYHHPRP	Escherichia coli TOP10	shrunken log2 fold change	-0.247
RRIRCRPPRLPRPRPRPSFDPRP	Escherichia coli TOP10	shrunken log2 fold change	-0.282
RRIRYRPPRLPRPRPRPPHHPRP	Escherichia coli TOP10	shrunken log2 fold change	-0.668
RRIRNRPPRLPRPRPRPHCFPRP	Escherichia coli TOP10	shrunken log2 fold change	-0.641
RRIRARPPRLPRPRPRPTNSPRP	Escherichia coli TOP10	shrunken log2 fold change	0.165
RRIRDRPPRLPRPRPRPYVPPRP	Escherichia coli TOP10	shrunken log2 fold change	-0.604
RRIRARPPRLPRPRPRPQHRPRP	Escherichia coli TOP10	shrunken log2 fold change	-0.281
RRIRVRPPRLPRPRPRPSQMPRP	Escherichia coli TOP10	shrunken log2 fold change	-0.0502
RRIRYRPPRLPRPRPRPLRPPRP	Escherichia coli TOP10	shrunken log2 fold change	0.786
RRIRTRPPRLPRPRPRPDDYPRP	Escherichia coli TOP10	shrunken log2 fold change	-0.111
RRIRCRPPRLPRPRPRPTAKPRP	Escherichia coli TOP10	shrunken log2 fold change	0.226
RRIRHRPPRLPRPRPRPRQNPRP	Escherichia coli TOP10	shrunken log2 fold change	0.0341
RRIRIRPPRLPRPRPRPMCRPRP	Escherichia coli TOP10	shrunken log2 fold change	-0.236
RRIRLRPPRLPRPRPRPWCDPRP	Escherichia coli TOP10	shrunken log2 fold change	-0.437
RRIRYRPPRLPRPRPRPHPMPRP	Escherichia coli TOP10	shrunken log2 fold change	-0.191
RRIRKRPPRLPRPRPRPYYLPRP	Escherichia coli TOP10	shrunken log2 fold change	-0.278
RRIRYRPPRLPRPRPRPYREPRP	Escherichia coli TOP10	shrunken log2 fold change	0.0196
RRIRERPPRLPRPRPRPQAMPRP	Escherichia coli TOP10	shrunken log2 fold change	0.00616
RRIRGRPPRLPRPRPRPLVYPRP	Escherichia coli TOP10	shrunken log2 fold change	0.0199
RRIRGRPPRLPRPRPRPVEQPRP	Escherichia coli TOP10	shrunken log2 fold change	0.0754
RRIRSRPPRLPRPRPRPVPCPRP	Escherichia coli TOP10	shrunken log2 fold change	-0.226
RRIRNRPPRLPRPRPRPAGKPRP	Escherichia coli TOP10	shrunken log2 fold change	-0.0122
RRIRLRPPRLPRPRPRPCKHPRP	Escherichia coli TOP10	shrunken log2 fold change	-0.0106
RRIRARPPRLPRPRPRPVPFPRP	Escherichia coli TOP10	shrunken log2 fold change	0.0816
RRIRARPPRLPRPRPRPLYNPRP	Escherichia coli TOP10	shrunken log2 fold change	-0.225
RRIRKRPPRLPRPRPRPRSTPRP	Escherichia coli TOP10	shrunken log2 fold change	0.177
RRIRSRPPRLPRPRPRPFMWPRP	Escherichia coli TOP10	shrunken log2 fold change	-0.165
RRIRWRPPRLPRPRPRPCVHPRP	Escherichia coli TOP10	shrunken log2 fold change	0.0249
RRIRNRPPRLPRPRPRPIYFPRP	Escherichia coli TOP10	shrunken log2 fold change	-0.767
RRIRNRPPRLPRPRPRPAEQPRP	Escherichia coli TOP10	shrunken log2 fold change	-0.018
RRIRQRPPRLPRPRPRPAYLPRP	Escherichia coli TOP10	shrunken log2 fold change	0.0774
RRIRSRPPRLPRPRPRPYAFPRP	Escherichia coli TOP10	shrunken log2 fold change	-0.487
RRIRRRPPRLPRPRPRPWEVPRP	Escherichia coli TOP10	shrunken log2 fold change	0.125
RRIRRRPPRLPRPRPRPKIWPRP	Escherichia coli TOP10	shrunken log2 fold change	0.227
RRIRSRPPRLPRPRPRPWPQPRP	Escherichia coli TOP10	shrunken log2 fold change	0.0548
RRIRIRPPRLPRPRPRPKPYPRP	Escherichia coli TOP10	shrunken log2 fold change	-0.24
RRIRSRPPRLPRPRPRPQTIPRP	Escherichia coli TOP10	shrunken log2 fold change	-0.502
RRIRNRPPRLPRPRPRPAPYPRP	Escherichia coli TOP10	shrunken log2 fold change	0.0296
RRIRQRPPRLPRPRPRPPWEPRP	Escherichia coli TOP10	shrunken log2 fold change	-0.0075
RRIRHRPPRLPRPRPRPCQPPRP	Escherichia coli TOP10	shrunken log2 fold change	-0.0284
RRIRPRPPRLPRPRPRPRCVPRP	Escherichia coli TOP10	shrunken log2 fold change	0.0965
RRIRMRPPRLPRPRPRPYIWPRP	Escherichia coli TOP10	shrunken log2 fold change	-0.402
RRIRPRPPRLPRPRPRPSELPRP	Escherichia coli TOP10	shrunken log2 fold change	0.0666
RRIRNRPPRLPRPRPRPGEHPRP	Escherichia coli TOP10	shrunken log2 fold change	0.00902
RRIRLRPPRLPRPRPRPICKPRP	Escherichia coli TOP10	shrunken log2 fold change	-0.28
RRIRVRPPRLPRPRPRPQIYPRP	Escherichia coli TOP10	shrunken log2 fold change	-0.251
RRIRDRPPRLPRPRPRPVRWPRP	Escherichia coli TOP10	shrunken log2 fold change	1.2
RRIRTRPPRLPRPRPRPKMEPRP	Escherichia coli TOP10	shrunken log2 fold change	-0.0203
RRIRQRPPRLPRPRPRPNMWPRP	Escherichia coli TOP10	shrunken log2 fold change	-0.419
RRIRLRPPRLPRPRPRPEHYPRP	Escherichia coli TOP10	shrunken log2 fold change	-0.00385
RRIRMRPPRLPRPRPRPKPCPRP	Escherichia coli TOP10	shrunken log2 fold change	0.366
RRIRMRPPRLPRPRPRPADTPRP	Escherichia coli TOP10	shrunken log2 fold change	0.367
RRIRDRPPRLPRPRPRPAAHPRP	Escherichia coli TOP10	shrunken log2 fold change	0.66
RRIRKRPPRLPRPRPRPEISPRP	Escherichia coli TOP10	shrunken log2 fold change	-0.0587
RRIRLRPPRLPRPRPRPGGMPRP	Escherichia coli TOP10	shrunken log2 fold change	-0.16
RRIRNRPPRLPRPRPRPAINPRP	Escherichia coli TOP10	shrunken log2 fold change	0.0991
